Catalogue of AUC25 readings, one per entry.
# Test system: Mycobacterium tuberculosis Erdman (autoluminescent)
# test method notes: AUC25, normalised area under dose response up to IC25 (fraction (0-1)); higher = more potent at low dose
# assay context: in vitro model: butyrate; time point: terminal (~4-5 doublings, model-specific)
quantity kind: AUC25

* O=[N+]([O-])c1cn2c(n1)OC[C@@H](OCc1ccc(OC(F)(F)F)cc1)C2 [pretomanid] + CO[C@H]1/C=C/O[C@@]2(C)Oc3c(C)c(O)c4c(O)c(c(/C=N/N5CCN(C)CC5)c(O)c4c3C2=O)NC(=O)/C(C)=C\C=C\[C@H](C)[C@H](O)[C@@H](C)[C@@H](O)[C@@H](C)[C@H](OC(C)=O)[C@@H]1C [rifampicin] | 0.0817
* O=[N+]([O-])c1cn2c(n1)OC[C@@H](OCc1ccc(OC(F)(F)F)cc1)C2 [pretomanid] + CO[C@H]1/C=C/O[C@@]2(C)Oc3c(C)c(O)c4c(O)c(c(/C=N/N5CCN(C6CCCC6)CC5)c(O)c4c3C2=O)NC(=O)/C(C)=C\C=C\[C@H](C)[C@H](O)[C@@H](C)[C@@H](O)[C@@H](C)[C@H](OC(C)=O)[C@@H]1C [rifapentine] | 0.0679
* NNC(=O)c1ccncc1 [isoniazid] + CO[C@H]1/C=C/O[C@@]2(C)Oc3c(C)c(O)c4c(O)c(c(/C=N/N5CCN(C)CC5)c(O)c4c3C2=O)NC(=O)/C(C)=C\C=C\[C@H](C)[C@H](O)[C@@H](C)[C@@H](O)[C@@H](C)[C@H](OC(C)=O)[C@@H]1C [rifampicin] | 0.0861
* COc1nc2ccc(Br)cc2cc1[C@@H](c1ccccc1)[C@@](O)(CCN(C)C)c1cccc2ccccc12 [bedaquiline] + NNC(=O)c1ccncc1 [isoniazid] | 0.0557
* CC(C)/N=c1\cc2n(-c3ccc(Cl)cc3)c3ccccc3nc-2cc1Nc1ccc(Cl)cc1 [clofazimine] + CC(=O)NC[C@H]1CN(c2ccc(N3CCOCC3)c(F)c2)C(=O)O1 [linezolid] | 0.0908
* CC(C)/N=c1\cc2n(-c3ccc(Cl)cc3)c3ccccc3nc-2cc1Nc1ccc(Cl)cc1 [clofazimine] + CO[C@H]1/C=C/O[C@@]2(C)Oc3c(C)c(O)c4c(O)c(c(/C=N/N5CCN(C)CC5)c(O)c4c3C2=O)NC(=O)/C(C)=C\C=C\[C@H](C)[C@H](O)[C@@H](C)[C@@H](O)[C@@H](C)[C@H](OC(C)=O)[C@@H]1C [rifampicin] | 0.104
* CC[C@@H](CO)NCCN[C@@H](CC)CO [ethambutol] + O=[N+]([O-])c1cn2c(n1)OC[C@@H](OCc1ccc(OC(F)(F)F)cc1)C2 [pretomanid] | 0.0585
* COc1nc2ccc(Br)cc2cc1[C@@H](c1ccccc1)[C@@](O)(CCN(C)C)c1cccc2ccccc12 [bedaquiline] + CC[C@@H](CO)NCCN[C@@H](CC)CO [ethambutol] | 0.0577

----------
# Tested on: Mycobacterium tuberculosis Erdman (autoluminescent)
# test method notes: GRinf, maximum normalised growth rate inhibition (three-drug combination) (unitless (-1 to 1)); higher = less effect (negative = killing)
# assay context: in vitro model: butyrate; time point: terminal (~4-5 doublings, model-specific)
Catalogue of GRinf readings, one per entry.
quantity kind: GRinf

- CC[C@@H](CO)NCCN[C@@H](CC)CO [ethambutol] + CC(=O)NC[C@H]1CN(c2ccc(N3CCOCC3)c(F)c2)C(=O)O1 [linezolid] + CO[C@H]1/C=C/O[C@@]2(C)Oc3c(C)c(O)c4c(O)c(c(/C=N/N5CCN(C)CC5)c(O)c4c3C2=O)NC(=O)/C(C)=C\C=C\[C@H](C)[C@H](O)[C@@H](C)[C@@H](O)[C@@H](C)[C@H](OC(C)=O)[C@@H]1C [rifampicin]: 0.0366
- O=[N+]([O-])c1cn2c(n1)OC[C@@H](OCc1ccc(OC(F)(F)F)cc1)C2 [pretomanid] + NC(=O)c1cnccn1 [pyrazinamide] + CO[C@H]1/C=C/O[C@@]2(C)Oc3c(C)c(O)c4c(O)c(c(/C=N/N5CCN(C6CCCC6)CC5)c(O)c4c3C2=O)NC(=O)/C(C)=C\C=C\[C@H](C)[C@H](O)[C@@H](C)[C@@H](O)[C@@H](C)[C@H](OC(C)=O)[C@@H]1C: 0.0745
- CC(=O)NC[C@H]1CN(c2ccc(N3CCOCC3)c(F)c2)C(=O)O1 [linezolid] + NC(=O)c1cnccn1 [pyrazinamide] + CO[C@H]1/C=C/O[C@@]2(C)Oc3c(C)c(O)c4c(O)c(c(/C=N/N5CCN(C6CCCC6)CC5)c(O)c4c3C2=O)NC(=O)/C(C)=C\C=C\[C@H](C)[C@H](O)[C@@H](C)[C@@H](O)[C@@H](C)[C@H](OC(C)=O)[C@@H]1C [rifapentine]: 0.0873
- CC(=O)NC[C@H]1CN(c2ccc(N3CCOCC3)c(F)c2)C(=O)O1 [linezolid] + COc1c(N2C[C@@H]3CCCN[C@@H]3C2)c(F)cc2c(=O)c(C(=O)O)cn(C3CC3)c12 [moxifloxacin] + CO[C@H]1/C=C/O[C@@]2(C)Oc3c(C)c(O)c4c(O)c(c(/C=N/N5CCN(C6CCCC6)CC5)c(O)c4c3C2=O)NC(=O)/C(C)=C\C=C\[C@H](C)[C@H](O)[C@@H](C)[C@@H](O)[C@@H](C)[C@H](OC(C)=O)[C@@H]1C [rifapentine]: 0.0958
